Kindly supply the reported Human GIPR cAMP, HEK293T EC50 values for the records listed here.
- TARGET_ENTITY: T1, full-length human GIPR with an N-terminal FLAG tag (human, UniProt P48546 22-466)
- T1 sequence (looked up): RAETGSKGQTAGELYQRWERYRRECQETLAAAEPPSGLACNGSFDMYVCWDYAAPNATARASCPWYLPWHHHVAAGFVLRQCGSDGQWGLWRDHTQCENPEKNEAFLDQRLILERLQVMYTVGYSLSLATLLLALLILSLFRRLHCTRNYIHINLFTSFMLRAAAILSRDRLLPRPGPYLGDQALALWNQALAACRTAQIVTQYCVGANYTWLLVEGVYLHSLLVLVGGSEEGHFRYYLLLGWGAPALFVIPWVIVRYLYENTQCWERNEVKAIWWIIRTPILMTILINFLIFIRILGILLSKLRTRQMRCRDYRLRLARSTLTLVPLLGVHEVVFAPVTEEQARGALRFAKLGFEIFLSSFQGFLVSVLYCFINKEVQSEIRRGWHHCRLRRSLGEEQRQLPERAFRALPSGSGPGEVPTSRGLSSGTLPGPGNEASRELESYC
- MEASUREMENT_PROTOCOL: cell-based or functional assay
Starred links: 1 amine or outer side, 2 acyl side, 3 side chain; linkers in the order of their positions; H or OH if unused. Non-standard residues stand in square brackets, D forms with d. Groups on a side chain read outwards from the residue. No end group written: not given here. *: point of attachment. C15 diacid = O=C(O)CCCCCCCCCCCCCC(=O)*; γGlu = O=C(O)[C@H](CCC(=O)[*:2])N[*:1]; NMeY = CN[C@@H](Cc1ccc(O)cc1)C(=O)O; AEEA = NCCOCCOCC(=O)O; Aib = CC(C)(N)C(=O)O
Give bare numbers, in pM.

Worked examples follow.
BINDER	Human GIPR cAMP, HEK293T EC50 [pM]
[NMeY][Aib]EGTFISDYSIALDRK([G5-γGlu-C15DA])AQ[Aib]DFVNWLLAQSPSSGAPPPS-NH2 [Compound 132]	0.1
Me-Y[Aib]EGTFISDYSIALDR[Aib]AQ[Aib]KFVNWLLAQKG-OH (not fully specified (residues 1, 21)) [Compound 143]	0.4
Me-Y[Aib]EGTFISDYSI[Aib]LDR[Aib]AQ[Aib]NFVNWLLAQK([AEEA-AEEA-γGlu-γGlu-C15 diacid])GGGGS-NH2 [Compound 136]	0.9
Me-Y[Aib]EGTFISDYSIALDR[Aib]K([AEEA-AEEA-γGlu-γGlu-C15 diacid])Q[Aib]NFVNWLLAQSPSSGAPPPS-NH2 [Compound 17]	0.4
Me-Y[Aib]EGTFISDYSIALDR[Aib]AQ[Aib]KFVNWLLAQKG-OH (not fully specified (residues 1, 21)) [Compound 148]	1.1

Please state Human GIPR cAMP, HEK293T EC50 for every binder in the list that follows.
1. Me-Y[Aib]EGTFISDYSIAK([AEEA-AEEA-γGlu-γGlu-C15 diacid])DR[Aib]AQ[Aib]NFVNWLLAQS (not fully specified (residue 1)) [Compound 16]
2. Me-Y[Aib]EGTFISDYSIAK([2OEG-γGlu-γGlu-C15 diacid])DR[Aib]AQ[Aib]NFVNWLLAQK-NH2 [Compound 22]
3. [NMeY][Aib]EGTFISDYSIAK([AEEA-γGlu-γGlu-γGlu-C15 diacid])DR[Aib]AQ[Aib]NFVNWLLA[Aib]K-OH (not fully specified) [Compound 39]
4. [NMeY][Aib]EGTFISDYSIALDR[Aib]AQ[Aib]K([AEEA-AEEA-γGlu-γGlu-C15 diacid])FVNWLLAQR-NH2 (not fully specified (N-terminus); also: C-term NH2 in mods, C_TER column prints OH) [Compound 14]

1: 0.3; 2: 0.3; 3: 0.5; 4: 0.4
